Recorded Ki for molecules tested on Glutamate receptor 2 (Homo sapiens, UniProt P42262), drawn from a number of studies.
Sequence (P42262 whole entry): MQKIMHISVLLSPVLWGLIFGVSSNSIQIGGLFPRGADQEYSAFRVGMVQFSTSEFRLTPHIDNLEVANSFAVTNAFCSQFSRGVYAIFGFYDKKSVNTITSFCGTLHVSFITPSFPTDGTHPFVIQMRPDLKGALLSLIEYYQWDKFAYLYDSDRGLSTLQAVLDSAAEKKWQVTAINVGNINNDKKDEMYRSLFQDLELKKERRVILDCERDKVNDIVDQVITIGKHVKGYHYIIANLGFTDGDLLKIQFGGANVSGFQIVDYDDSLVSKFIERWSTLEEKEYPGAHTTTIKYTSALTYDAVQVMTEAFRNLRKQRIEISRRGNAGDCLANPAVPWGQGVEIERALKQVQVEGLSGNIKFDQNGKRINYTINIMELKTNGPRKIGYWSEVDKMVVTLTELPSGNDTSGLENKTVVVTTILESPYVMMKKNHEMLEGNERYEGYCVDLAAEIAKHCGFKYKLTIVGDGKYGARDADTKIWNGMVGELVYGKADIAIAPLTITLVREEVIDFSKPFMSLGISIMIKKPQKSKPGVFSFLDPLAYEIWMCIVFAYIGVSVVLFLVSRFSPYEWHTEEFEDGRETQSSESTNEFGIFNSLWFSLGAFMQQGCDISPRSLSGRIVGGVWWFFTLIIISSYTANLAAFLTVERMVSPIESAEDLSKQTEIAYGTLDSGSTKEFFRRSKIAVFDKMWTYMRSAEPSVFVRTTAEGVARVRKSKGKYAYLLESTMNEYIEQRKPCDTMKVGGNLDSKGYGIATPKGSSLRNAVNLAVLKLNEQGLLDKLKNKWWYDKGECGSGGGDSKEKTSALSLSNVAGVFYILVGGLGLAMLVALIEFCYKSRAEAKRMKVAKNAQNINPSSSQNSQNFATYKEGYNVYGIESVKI
measure_name: Ki (µM)

1: O=C(O)c1cc(Cl)ccc1N[C@H]1CC[C@H]2CN[C@H](C(=O)O)C[C@H]2C1
2: O=C(O)c1ccc(S[C@H]2CC[C@H]3CN[C@H](C(=O)O)C[C@H]3C2)cc1
3: COc1ccc(O[C@H]2CC[C@H]3CN[C@H](C(=O)O)C[C@H]3C2)c(C(=O)O)c1
4: O=C(O)c1ccccc1S[C@H]1CC[C@H]2CN[C@H](C(=O)O)C[C@H]2C1
Please give the order of these molecules when sorted by Ki, largest value leading. Provide the labels, sequenced as the question asks.
2, 3, 4, 1

1: O=C(O)c1cc(-c2ccccc2)ccc1O[C@H]1CC[C@H]2CN[C@H](C(=O)O)C[C@H]2C1
2: Cc1nn(C[C@H](N)C(=O)O)c(=O)[nH]c1=O
3: O=C(O)[C@@H]1C[C@H]2C[C@@H](Nc3ccccc3-c3nn[nH]n3)CC[C@H]2CN1
Sort these molecules on Ki so the largest reading comes first. Use the labels to give the requested order.
1, 3, 2

* * *

Ki values for Glutamate receptor 2 (Homo sapiens), compiled from several publications.
measure_name: Ki (µM)

compound	tgt	units	Ki
CC(C)n1nnc(-c2onc(O)c2CC(N)C(=O)O)n1 (stereo not drawn)	Glutamate receptor 2 (Homo sapiens)	µM	2.93

1: CC(C)/C=C(\C[C@H](N)C(=O)O)C(=O)O
2: N[C@@H](Cn1nc(I)c(=O)[nH]c1=O)C(=O)O
3: Cl.O=C(O)c1ccc(C[C@H]2CC[C@H]3CN[C@H](C(=O)O)C[C@H]3C2)cc1
4: O=C(O)c1cccc(C[C@H]2CC[C@H]3CN[C@H](C(=O)O)C[C@H]3C2)c1
5: O=C(O)c1ccc(O[C@H]2CC[C@H]3CN[C@H](C(=O)O)C[C@H]3C2)cc1
Order field: Ki | Direction: descending (largest first) Give the labels in the order specified.
5, 3, 4, 1, 2
(5: 913 µM, 3: 553 µM, 4: 149 µM, 1: 3.7 µM, 2: 0.101 µM)
